Biological target: VEGFR2 (Homo sapiens, UniProt P35968)
Construct: purchased Upstate
Sequence (P35968 20-1356): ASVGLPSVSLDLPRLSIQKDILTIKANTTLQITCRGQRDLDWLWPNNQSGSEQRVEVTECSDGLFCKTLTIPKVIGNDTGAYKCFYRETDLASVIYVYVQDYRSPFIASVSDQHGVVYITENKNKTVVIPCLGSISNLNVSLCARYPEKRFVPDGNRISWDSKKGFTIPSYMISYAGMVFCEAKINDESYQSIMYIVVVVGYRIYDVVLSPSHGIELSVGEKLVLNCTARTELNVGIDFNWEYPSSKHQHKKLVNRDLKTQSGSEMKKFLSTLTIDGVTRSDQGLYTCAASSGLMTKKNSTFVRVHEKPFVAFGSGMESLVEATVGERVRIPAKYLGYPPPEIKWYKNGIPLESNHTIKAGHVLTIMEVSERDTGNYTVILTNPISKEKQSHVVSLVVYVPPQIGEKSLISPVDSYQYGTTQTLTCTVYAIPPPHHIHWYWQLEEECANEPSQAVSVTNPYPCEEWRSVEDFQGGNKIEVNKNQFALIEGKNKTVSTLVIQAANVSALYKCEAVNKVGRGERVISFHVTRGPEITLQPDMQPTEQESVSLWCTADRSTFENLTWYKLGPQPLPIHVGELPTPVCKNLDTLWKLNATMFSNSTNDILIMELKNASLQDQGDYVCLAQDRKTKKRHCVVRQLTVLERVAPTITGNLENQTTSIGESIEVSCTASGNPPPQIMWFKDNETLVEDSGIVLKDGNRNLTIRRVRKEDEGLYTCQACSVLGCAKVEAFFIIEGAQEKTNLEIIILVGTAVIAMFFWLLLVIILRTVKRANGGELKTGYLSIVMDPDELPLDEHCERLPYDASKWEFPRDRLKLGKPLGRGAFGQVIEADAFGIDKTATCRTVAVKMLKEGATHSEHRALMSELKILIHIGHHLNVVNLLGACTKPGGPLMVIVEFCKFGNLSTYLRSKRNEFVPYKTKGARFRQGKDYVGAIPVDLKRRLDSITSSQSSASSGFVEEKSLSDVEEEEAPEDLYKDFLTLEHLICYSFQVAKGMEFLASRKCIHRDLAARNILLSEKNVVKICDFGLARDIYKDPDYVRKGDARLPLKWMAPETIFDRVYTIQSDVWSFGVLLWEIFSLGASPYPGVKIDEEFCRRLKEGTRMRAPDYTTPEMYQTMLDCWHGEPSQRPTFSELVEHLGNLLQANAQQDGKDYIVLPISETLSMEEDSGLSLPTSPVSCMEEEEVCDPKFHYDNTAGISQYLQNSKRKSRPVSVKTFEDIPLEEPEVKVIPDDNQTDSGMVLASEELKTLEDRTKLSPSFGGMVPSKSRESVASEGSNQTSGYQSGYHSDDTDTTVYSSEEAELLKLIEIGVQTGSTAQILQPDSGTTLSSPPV
Assay: VEGFR2 in vitro kinase inhibitory activity assay (TRF)
Assay type: biochemical
Settings: 0.5 μM ATP, 1 hour; read-out: VEGFR2 IC50(μM) or % I
quantity_name: IC50 (µM)

Solved cases (2 shown):
# compound, tested_on, IC50 (µM)
rows = [
    ("O=C(NCC(F)(F)F)Nc1cccc(-c2cnc3cc(C=NOCc4cccnc4)ccn23)c1 [Compound 1-55]", "VEGFR2 (Homo sapiens, UniProt P35968)", 0.38),
    ("O=C(NCC(F)(F)F)Nc1cccc(-c2cnc3cc(/C=N/OCCCO)ccn23)c1 [Compound 1-18]", "VEGFR2 (Homo sapiens, UniProt P35968)", 0.4),
]

a: O=C(NCC(F)(F)F)Nc1cccc(-c2cnc3cc(C=NOCC(O)CNC4CC4)ccn23)c1 (stereo not shown) [Compound 1-61]
b: CC(C)Oc1cc(NC(=O)NCC(F)(F)F)cc(-c2cnc3cc(/C(=N/O)C4CC4)ccn23)c1 [Compound 1-66]
QUERY: For a and b , which recorded IC50 is lower? Use the label to indicate which entry you chose.
RESULT: a

###

System: parental wild-type Ba/F3 cells
Test: Ba/F3 (WT) cell proliferation assay (Alamar Blue)
Assay type: cell-based
Settings: Mus musculus, BaF3; % at 10.0 μM, 72 hours; read-out: BaF3 WT prolif
quantity_name: inhibition at 10 µM (%)
Only the number, expressed in %, is required.

These recorded examples may help you get a feel for the data.
# compound, quantity_name, observed_value
records = [
    ("CN(CCO)CCON=Cc1ccn2c(-c3cccc(NC(=O)NCC(F)(F)F)c3)cnc2c1", "inhibition at 10 µM", 55),
    ("O=C(NCC(F)(F)F)Nc1cccc(-c2cnc3cc(C=NOc4ncccn4)ccn23)c1", "inhibition at 10 µM", 10),
    ("CN1CCC(NCCCON=Cc2ccn3c(-c4cccc(NC(=O)NCC(F)(F)F)c4)cnc3c2)CC1", "inhibition at 10 µM", 0),
    ("Cc1noc(C)c1CON=Cc1ccn2c(-c3cccc(NC(=O)NCC(F)(F)F)c3)cnc2c1", "inhibition at 10 µM", 38),
]

QUERY: Looking for the measured inhibition at 10 µM of C/C(=N\O)c1ccn2c(-c3cccc(NC(=O)NCC(F)(F)F)c3)cnc2c1 , can you help?
RESULT: 17

QUERY: Value lookup for inhibition at 10 µM; key = C/C(=N\OCCO)c1ccn2c(-c3cccc(NC(=O)NCC(F)(F)F)c3)cnc2c1
RESULT: 45

QUERY: So what's the measured inhibition at 10 µM for this one? C/C(=N\OCCOCCO)c1ccn2c(-c3cccc(NC(=O)NCC(F)(F)F)c3)cnc2c1
RESULT: 39

QUERY: Which inhibition at 10 µM is listed for O=C(NCC(F)(F)F)Nc1cccc(-c2cnc3cc(C=NOCCCN4CCC(O)C4)ccn23)c1 (stereo not drawn) ?
RESULT: 21

QUERY: Endpoint output: inhibition at 10 µM of O=C(NCC(F)(F)F)Nc1cccc(-c2cnc3cc(C=NOCCC4CCNCC4)ccn23)c1 . Value?
RESULT: 11

###

Biological target: FGFR3 (Homo sapiens, UniProt P22607)
Construct: purchased Upstate
Sequence (P22607 23-806): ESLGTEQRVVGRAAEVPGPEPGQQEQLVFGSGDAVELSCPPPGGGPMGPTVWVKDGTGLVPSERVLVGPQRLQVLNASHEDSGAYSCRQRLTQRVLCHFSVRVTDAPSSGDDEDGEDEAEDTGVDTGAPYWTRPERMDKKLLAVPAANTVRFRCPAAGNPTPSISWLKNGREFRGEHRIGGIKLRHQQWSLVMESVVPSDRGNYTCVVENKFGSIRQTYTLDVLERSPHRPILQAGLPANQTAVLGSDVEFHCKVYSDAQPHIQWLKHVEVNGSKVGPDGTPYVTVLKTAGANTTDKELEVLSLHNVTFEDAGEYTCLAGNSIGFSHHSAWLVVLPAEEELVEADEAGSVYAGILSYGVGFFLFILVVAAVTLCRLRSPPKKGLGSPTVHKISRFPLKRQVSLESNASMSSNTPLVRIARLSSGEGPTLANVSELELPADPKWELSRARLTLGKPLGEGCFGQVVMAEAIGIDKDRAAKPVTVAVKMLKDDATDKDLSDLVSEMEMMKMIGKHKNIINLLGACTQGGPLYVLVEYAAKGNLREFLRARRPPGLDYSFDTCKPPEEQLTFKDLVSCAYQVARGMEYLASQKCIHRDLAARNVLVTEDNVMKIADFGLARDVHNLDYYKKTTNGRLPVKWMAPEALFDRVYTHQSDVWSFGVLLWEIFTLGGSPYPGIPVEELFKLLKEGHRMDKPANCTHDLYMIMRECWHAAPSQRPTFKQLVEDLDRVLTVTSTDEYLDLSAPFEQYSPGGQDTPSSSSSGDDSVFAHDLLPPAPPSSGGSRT
Test: FGFR3 in vitro kinase inhibitory activity assay (TRF)
Type: biochemical
Conditions: 8 μM ATP, 3 hours; read-out: FGFR3 IC50(μM) or % I
quantity_name: IC50 (µM)

Answered cases to consult:
# compound, IC50 (µM)
data = [
    ("COC1CCN(CCCON=Cc2ccn3c(-c4cccc(NC(=O)NCC(F)(F)F)c4)cnc3c2)CC1 [Compound 1-36]", 0.024),
    ("CC(C)Oc1cc(NC(=O)NCC(F)(F)F)cc(-c2cnc3cc(/C(=N/O)C4CC4)ccn23)c1 [Compound 1-31]", 0.023),
]

a: Nc1nc(CON=Cc2ccn3c(-c4cccc(NC(=O)NCC(F)(F)F)c4)cnc3c2)cs1 [Compound 1-16]
b: CN(CCO)CCON=Cc1ccn2c(-c3cccc(NC(=O)NCC(F)(F)F)c3)cnc2c1 [Compound 1-58]
QUERY: Which record would sort first by descending IC50, a or b ? Please indicate the selected item by its label.
RESULT: b
